test system: OVCAR-3; experiment: NCI tumour cell line growth inhibition, 48 h
The source made the active and inactive calls. Cut-off read from the data, not from the text of the source: active = GI50 up to about 1.1 µM and inactive = higher.
Observable: GI50

Example compounds with recorded GI50:
[[record]]
compound = "Clc1ccc(C(Cc2cccc(Cl)c2)c2c(Cl)nc(N3CCNCC3)nc2Cl)cc1 (centres undefined)"
observable = "GI50"
result = "15.8 µM (inactive)"

[[record]]
compound = "C[S+]([O-])c1ccc(COP(N)(=O)N(CCCl)CCCl)cc1 (centres undefined)"
observable = "GI50"
result = "> 100 µM (inactive)"

[[record]]
compound = "O=C(OCC1OC(c2nn[nH]n2)C(OC(=O)c2ccccc2)C1OC(=O)c1ccccc1)c1ccccc1 (centres undefined)"
observable = "GI50"
result = "> 100 µM (inactive)"

[[record]]
compound = "S=c1[nH]c2ccc(Br)cc2c(=S)n1-c1ccccc1"
observable = "GI50"
result = "20.7 µM (inactive)"

[[record]]
compound = "COc1ccc2c3c(n(Cc4ccccc4)c(=O)c2c1)-c1cc(OC)c(OC)cc1C3C (centres undefined)"
observable = "GI50"
result = "15 µM (inactive)"


Look up GI50 for the entries below, preserving their order.
1. CC1(C)O[C@@H](CBr)C[C@H](C[C@H]2C[C@@H](O)C[C@@H](CCOCc3ccccc3)O2)O1
2. CC1(C)OC[C@@H](/C=C\CCO[Si](c2ccccc2)(c2ccccc2)C(C)(C)C)N1C(=O)c1ccccc1
3. O=C1Nc2ccccc2/C1=C\c1c(-c2ccccc2)nc2n1CCS2
4. O=C(CCCN1CCC2(CC1)C(=O)NC(=O)N2c1ccccc1)c1ccc(F)cc1

A)
["19.4 µM (inactive)", "7.5 µM (inactive)", "15.6 µM (inactive)", "> 100 µM (inactive)"]

----------
test system: MDA-MB-231; experiment: NCI tumour cell line growth inhibition, 48 h
Active and inactive are the calls of the source. Cut-off read from the data, not from the text of the source: active = GI50 up to about 1.1 µM and inactive = higher.
Assignment: determine reported GI50 for the given molecules.

[[record]]
molecule = "O=C1CCC2(O)C3Cc4ccc(Oc5nnnn5-c5ccccc5)c5c4C2(CCN3CC2CC2)C1O5 (centres undefined)"
result = "58.6 µM (inactive)"

[[record]]
molecule = "NC(Cc1ccc(S(=O)(=O)O)cc1)C(=O)NC(CCCCNC(=O)NCCCCC(NC(=O)C(N)Cc1ccc(S(=O)(=O)O)cc1)C(=O)NC(Cc1ccc(S(=O)(=O)O)cc1)C(=O)O)C(=O)NC(Cc1ccc(S(=O)(=O)O)cc1)C(=O)O (centres undefined)"
result = "> 100 µM (inactive)"

[[record]]
molecule = "CN(C)CCCn1nc(N)c2nc3cc(Cl)ccc3nc21"
result = "58.3 µM (inactive)"

[[record]]
molecule = "CC1(C)OC[C@@H](/C=C\\CCO[Si](c2ccccc2)(c2ccccc2)C(C)(C)C)N1C(=O)c1ccccc1"
result = "10.9 µM (inactive)"

[[record]]
molecule = "COC(=O)C1(Cc2ccccc2)Cc2cc3c(cc2C1)CCC3"
result = "45.3 µM (inactive)"

[[record]]
molecule = "COc1ccc(N[S+]([O-])c2ccc(-c3ccccc3)cc2)cc1 (centres undefined)"
result = "> 100 µM (inactive)"

[[record]]
molecule = "C[C@]12Cc3cnc(-c4ccccc4)nc3C[C@@H]1CC[C@@H]1[C@@H]2CC[C@@]2(C)[C@H]1CC[C@]2(C)O"
result = "18.8 µM (inactive)"

[[record]]
molecule = "O=C(O)c1ccccc1/C=N/N=C1NCCCCN1"
result = "> 100 µM (inactive)"


Attention now turns to another entry.
Q) If you can, please state the reported GI50 value of "O=C1C=CC(=O)c2c1ccc1c3ccccc3n(Cc3ccccc3)c21" .
A) 20.3 µM (inactive)

----------
test system: PC-3; test: NCI tumour cell line growth inhibition, 48 h
Active and inactive are the calls of the source. Cut-off read from the data, not from the text of the source: active = GI50 up to about 1.1 µM and inactive = higher.
Select the matching outcome among t = active, f = inactive

[[record]]
compound = "COc1ccc(C2CCc3c(cnc4nc(N)nc(N)c34)C2)cc1 (centres undefined)"
label_value = "f"

[[record]]
compound = "c1ccc2cc(CNCCCCNCCCNCc3ccc4ccccc4c3)ccc2c1"
label_value = "f"

[[record]]
compound = "Cc1cc(Br)c(O)c(-c2cscn2)c1"
label_value = "f"

[[record]]
compound = "CC(=O)Oc1ccn2nc(C)c(Br)c2c1Br"
label_value = "f"

[[record]]
compound = "CN(N)c1nc(N)c(C#N)c(C#N)c1C#N"
label_value = "f"

[[record]]
compound = "NS(=O)(=O)c1nnc(/N=C(/CCC(=O)O)C(=O)O)s1"
label_value = "f"

[[record]]
compound = "NCCNCCCNC(=O)c1cc(-c2ccccc2)nc2ccccc12"
label_value = "f"

[[record]]
compound = "Nc1nc(=O)n(C2OC(CO)C(O)C2O)c2ncc(-c3ccc(-c4ccccc4)cc3)nc12 (centres undefined)"
label_value = "f"

[[record]]
compound = "Cc1cccc2sc(NC(=O)NS(=O)(=O)n3cnc4ccccc43)nc12"
label_value = "f"

[[record]]
compound = "Oc1ccc2c(c1)CCc1c-2n(CCN2CCOCC2)c2ccc(O)cc12"
label_value = "f"


Q) Per the records of this test, what outcome belongs to "N/C(=N\N=C\c1c[nH]c2ccccc12)Nc1ccccc1" ?
A) t

Q) Per the records of this test, what outcome belongs to "CC(C)(C)OC(=O)N(CCCCNC(=O)C(F)(F)F)CCCNC(=O)C(F)(F)F" ?
A) f

Q) Per the records of this test, what outcome belongs to "Cc1ccc(C2=C(C#N)C(=O)N3CCN=C3S2)cc1" ?
A) f

Q) Per the records of this test, what outcome belongs to "CCc1nc2ccc(NCCN(C)C)c3c(=O)c4ccccc4n1c23" ?
A) t

Q) Per the records of this test, what outcome belongs to "CN(C)c1ccc(/C=C/C(=O)c2ccc(O)cc2)cc1" ?
A) f

----------
Assignment: determine reported GI50 for the given compounds.
tested on: IGROV-1; test: NCI tumour cell line growth inhibition, 48 h
Calls of active or inactive are those of the source. Cut-off read from the data, not from the text of the source: active = GI50 up to about 1.1 µM and inactive = higher.

[[record]]
compound = "O=C1C=Cc2ncccc2C1=O"
system_under_test = "IGROV-1"
observable = "GI50"
result = "32.2 µM (inactive)"

[[record]]
compound = "OC[C@H]1N[C@H](CO)[C@@H](O)[C@H]1O"
system_under_test = "IGROV-1"
observable = "GI50"
result = "> 100 µM (inactive)"

[[record]]
compound = "C=C1CC(Cn2ccc(=O)[nH]c2=O)(c2ccc(OC)cc2)OC1=O (stereo unspecified)"
system_under_test = "IGROV-1"
observable = "GI50"
result = "15.7 µM (inactive)"

[[record]]
compound = "CCCO/S(=N\\S(=O)(=O)c1ccccc1)c1ccccc1[N+](=O)[O-] (stereo unspecified)"
system_under_test = "IGROV-1"
observable = "GI50"
result = "> 100 µM (inactive)"


Look up GI50 for the entries below, preserving their order.
1. CC1=NN(C(=O)CC(=O)Nc2cccc(C)c2)C(=O)C1/N=N\c1ccc(S(=O)(=O)c2ccc(/N=N/C3C(=O)N(C(=O)CC(=O)Nc4cccc(C)c4)N=C3C)cc2)cc1 (stereo unspecified)
2. Oc1ccc2c(c1)CCc1c-2n(CCN2CCOCC2)c2ccc(O)cc12
3. CC1OC(O)CC(OC(=O)c2ccccc2)C1OC(=O)c1ccccc1 (stereo unspecified)
4. COC(=O)C1=CC2C(=O)c3ccccc3C1(c1ccccc1)N2C1CCCCC1 (stereo unspecified)

A)
1. > 100 µM (inactive)
2. 11 µM (inactive)
3. 12.4 µM (inactive)
4. 20.1 µM (inactive)

Look up GI50 for the entries below, preserving their order.
1. CC(O[Si](C)(C)C(C)(C)C)[C@H](NC(=O)OCC(Cl)(Cl)Cl)C(=O)O (stereo partly specified)
2. CN(N)c1nc(N)c(C#N)c(C#N)c1C#N
3. CN(C)CCCNC(=O)N/N=C/c1cccc([N+](=O)[O-])c1
4. Nc1ncc2c(n1)-c1ccccc1OC2N1CCOCC1 (stereo unspecified)
5. COC(=O)N1C2C(C[C@@]1(C)C(=O)OC)c1ccccc1N2S(=O)(=O)c1ccccc1 (stereo partly specified)
6. O=C1C(N2CCOCC2)=C(Cl)C(=O)c2ncccc21

A)
> 100 µM (inactive)
> 10 µM (inactive)
> 100 µM (inactive)
> 100 µM (inactive)
> 100 µM (inactive)
> 8.53 µM (inactive)

----------
test system: HCT-15; experiment: NCI tumour cell line growth inhibition, 48 h
Observable: GI50 (µM)
Answers are plain numbers, in µM.

[[record]]
molecular_string = "O=[N+]([O-])c1cc(-[n+]2cc([O-])on2)ccc1F"
observable = "GI50"
number = 20.3


Attention now turns to another entry.
Q) If you can, please state the reported GI50 value of "CC(C)C1=C(Cc2ccccc2)C(=O)O/C1=C\c1ccc(O)c(Cl)c1" .
A) 16

----------
system: T47D; assay: NCI tumour cell line growth inhibition, 48 h
Active and inactive are the calls of the source. No stated cut-off is given here; in the data, active = GI50 up to about 1.1 µM and inactive = higher.
Observable: GI50

Example compounds with recorded GI50:
[[record]]
compound = "NCCNCCCNC(=O)c1cc(-c2ccccc2)nc2ccccc12"
result = "38.5 µM (inactive)"

[[record]]
compound = "NC(Cc1ccc(S(=O)(=O)O)cc1)C(=O)NC(CCCCNC(=O)NCCCCC(NC(=O)C(N)Cc1ccc(S(=O)(=O)O)cc1)C(=O)NC(Cc1ccc(S(=O)(=O)O)cc1)C(=O)O)C(=O)NC(Cc1ccc(S(=O)(=O)O)cc1)C(=O)O (centres undefined)"
result = "> 100 µM (inactive)"

[[record]]
compound = "O=C(O)c1cc2c(cc1CC(Cc1ccccc1)C(=O)O)CCC2 (centres undefined)"
result = "> 100 µM (inactive)"


Attention now turns to another entry.
Q) If you can, please state the reported GI50 value of "Cc1ccc(C2=C(C#N)C(=O)N3CCN=C3S2)cc1" .
A) > 100 µM (inactive)
